The origin of these recorded values is paper PMC7826789.

- Tested on: BMPR1B;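 also: KINOMEscan scanMAX binding as percent activity remaining versus control; lower means stronger binding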
- condition: Compound Concentration (nM):1000
Known Percent Control of a selection of compounds

| compound | Percent Control / % |
| --- | --- |
| COc1cc2ncnc(Nc3ccc4c(cnn4Cc4ccccc4)c3)c2cc1OC.Cl [GW282449A] | 91 |
| COc1ccccc1-c1cc(/C=C2\C(=O)Nc3ncc(Br)cc32)cc(Br)c1O [GW442130X] | 85 |
| COc1ccc2cc(-c3c(-c4ccncc4)nc(-c4ccc(S(C)(=O)=O)cc4C)n3C)ccc2c1 | 63 |
| CC(C)COC(=O)c1ccc2c(c1)/C(=C/Nc1ccc(S(N)(=O)=O)cc1)C(=O)N2 [GW416981X] | 96 |
| NS(=O)(=O)c1ccc(N/N=C2\C(=O)Nc3ccc(Cl)cc32)cc1 [GW280670X] | 100 |
| COc1ccc(COc2ccc(Cc3cnc(N)nc3N)cc2OC)cc1 [GW632580X] | 92 |
| CC1=C(C(=O)Nc2ccc3[nH]ncc3c2)C(c2ccc(Cl)c(Cl)c2)CC(=O)N1 (stereo not drawn) [GSK299115A] | 67 |
| COc1ccc2[nH]c3c4[nH]c5ccc(OC)cc5c4c4c(c3c2c1)C(=O)NC4=O [GW296115X] | 56 |
| NS(=O)(=O)c1ccc(N/N=C2\C(=O)Nc3ccc(C(=O)NCCc4c[nH]cn4)cc32)cc1 [GW300660X] | 95 |
| CCS(=O)(=O)c1ccc(OC)c(Nc2ncc(-c3cccc(F)c3)o2)c1 [GW621970X] | 64 |
| Cl.O=C(Nc1ccc(Oc2ccc3[nH]c(NC(=O)c4ccccc4)nc3c2)cc1)Nc1cc(C(F)(F)F)ccc1F [GW709042A] | 94 |
| Cl.O=S1CCN(Cc2ccc(-c3ccc4ncnc(Nc5ccc(OCc6ccccc6)c(F)c5)c4c3)o2)CC1 [GW576924A] | 100 |
| Cl.O=C(Nc1ccc(Oc2ccc3[nH]c(NC(=O)c4ccco4)nc3c2)cc1)Nc1cc(C(F)(F)F)ccc1F [GW683134A] | 100 |
| CCS(=O)(=O)c1ccc(OC)c(Nc2ncc(-c3cccc(OC)c3)o2)c1 [GW580509X] | 45 |
| NS(=O)(=O)c1ccc(N/N=C2\C(=O)Nc3ccc(C(=O)NCc4ccncc4)cc32)cc1 [GW300657X] | 78 |
| COc1cc(C)c(N(C)C(=O)CN(C)C)cc1Nc1nc(Nc2cccc(F)c2C(N)=O)c2cc[nH]c2n1 | 95 |
| CCn1c(-c2nonc2N)nc2c(C#CC(C)(C)O)nc(OCCNC)cc21.Cl | 89 |
| CN(C)c1cc2c(Nc3ccc4c(cnn4Cc4ccccc4)c3)ncnc2cn1 [GW282974X] | 91 |
| COC(=O)Nc1nc2ccc(Oc3ccc(NC(=O)Nc4cc(C(F)(F)F)ccc4F)cc3)cc2s1.Cl [GW693917A] | 80 |
| CC1=C(C(=O)Nc2ccc3[nH]ncc3c2)C(c2ccc3ccccc3c2)CC(=O)N1 (stereo not drawn) [GSK270822A] | 43 |
| C/C(Nc1ccc(S(N)(=O)=O)cc1)=C1/C(=O)Nc2ccccc21 [GW335962X] | 97 |
| O=C(Nc1n[nH]c2nc(-c3ccc(O)cc3)c(Br)cc12)C1CC1 | 69 |
| CCc1ccc(Oc2nccc(-c3c(-c4ccc(F)cc4)ncn3C3CCNCC3)n2)cc1 | 88 |
| Cl.c1ccc(Cc2nc3ccc(Nc4ncnc5ccccc45)cc3[nH]2)cc1 [GR269666A] | 100 |
